Measured PT accompanies every entry in the list below.
Species on record: Rattus norvegicus
Test: Open TG-GATES - Regimen: Daily Repeat
Assay type: toxicity, organism-based, Sprague-Dawley
Set-up: regimen Daily Repeat, gender Male, age 6 weeks
Conditions: in vivo, po, 300 mg/kg, […], tissue Blood, route gavage, dose level Middle, time 28 day
The reply should be a number in s, with the unit left off.

Reference set (3 entries):
>  <compound>
CNC(=C[N+](=O)[O-])NCCSCc1ccc(CN(C)C)o1 [RANITIDINE]

>  <value>
12.3

$$$$
>  <compound>
CN/C(=N/CCSCc1nc[nH]c1C)NC#N [CIMETIDINE]

>  <value>
13

$$$$
>  <compound>
Cc1nnc2n1-c1ccc(Cl)cc1C(c1ccccc1Cl)=NC2 [TRIAZOLAM]

>  <value>
13.6

$$$$

Report PT for COC(=O)C1=C(C)NC(C)=C(C(=O)OC)C1c1ccccc1[N+](=O)[O-] [NIFEDIPINE] please. 13.8

Find the recorded PT belonging to O=C(OC[C@H]1O[C@@H](OC(=O)c2cc(O)c(O)c(OC(=O)c3cc(O)c(O)c(O)c3)c2)[C@H](OC(=O)c2cc(O)c(O)c(OC(=O)c3cc(O)c(O)c(O)c3)c2)[C@@H](OC(=O)c2cc(O)c(O)c(OC(=O)c3cc(O)c(O)c(O)c3)c2)[C@@H]1OC(=O)c1cc(O)c(O)c(OC(=O)c2cc(O)c(O)c(O)c2)c1)c1cc(O)c(O)c(OC(=O)c2cc(O)c(O)c(O)c2)c1 [TANNIC ACID] and report it. 11.9

State the recorded PT for this entry: CCOc1ccc(NC(C)=O)cc1 [PHENACETIN] 13.7
